Molecular target: Glucocorticoid receptor (Homo sapiens)
Sequence (P04150 whole entry): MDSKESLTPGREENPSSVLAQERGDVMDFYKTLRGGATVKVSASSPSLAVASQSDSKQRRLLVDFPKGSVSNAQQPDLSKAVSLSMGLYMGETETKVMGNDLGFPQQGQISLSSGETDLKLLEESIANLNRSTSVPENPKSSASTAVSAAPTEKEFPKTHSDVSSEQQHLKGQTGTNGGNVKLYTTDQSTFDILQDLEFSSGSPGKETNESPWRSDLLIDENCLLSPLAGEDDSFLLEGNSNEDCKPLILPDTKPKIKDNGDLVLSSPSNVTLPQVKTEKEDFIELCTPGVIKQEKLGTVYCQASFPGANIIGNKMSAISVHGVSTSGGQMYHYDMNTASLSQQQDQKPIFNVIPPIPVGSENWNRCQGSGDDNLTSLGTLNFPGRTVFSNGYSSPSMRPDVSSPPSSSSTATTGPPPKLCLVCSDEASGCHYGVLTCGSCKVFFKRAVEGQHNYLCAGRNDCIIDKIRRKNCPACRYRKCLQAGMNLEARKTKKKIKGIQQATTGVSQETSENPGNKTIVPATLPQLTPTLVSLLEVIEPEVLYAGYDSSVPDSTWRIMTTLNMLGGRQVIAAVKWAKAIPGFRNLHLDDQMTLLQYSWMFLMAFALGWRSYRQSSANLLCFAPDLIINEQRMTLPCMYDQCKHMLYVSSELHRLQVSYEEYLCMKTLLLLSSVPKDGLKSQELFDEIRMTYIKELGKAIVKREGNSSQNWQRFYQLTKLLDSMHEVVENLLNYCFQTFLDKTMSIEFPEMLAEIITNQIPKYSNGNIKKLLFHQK
Test: Antagonist activity against the Glucocorticoid Receptor (GR)
Type: functional
observable: IC50 (nM)

{"columns": ["substanceSmiles", "valueQualifier", "dataValue"],
 "data": [
  ["CC1(C)OC(=O)Nc2ccc(-c3cc(F)cc(C#N)c3)cc21", "=", 1760],
  ["CC1(C)OC(=O)Nc2ccc(-c3ccc(F)c(Cl)c3)cc21", "=", 2580],
  ["CC1(C)OC(=O)Nc2ccc(-c3coc(C#N)c3)cc21", ">", 10000],
  ["CC1(C)OC(=O)Nc2ccc(-c3csc(C#N)c3)cc21", "=", 1860]
]}
